# measurement_target: Phospho-EGFR (Tyr1068) in H1975 cells (Homo sapiens, UniProt P00533, L858R/T790M)
# Sequence (P00533 25-1210 T790M/L858R): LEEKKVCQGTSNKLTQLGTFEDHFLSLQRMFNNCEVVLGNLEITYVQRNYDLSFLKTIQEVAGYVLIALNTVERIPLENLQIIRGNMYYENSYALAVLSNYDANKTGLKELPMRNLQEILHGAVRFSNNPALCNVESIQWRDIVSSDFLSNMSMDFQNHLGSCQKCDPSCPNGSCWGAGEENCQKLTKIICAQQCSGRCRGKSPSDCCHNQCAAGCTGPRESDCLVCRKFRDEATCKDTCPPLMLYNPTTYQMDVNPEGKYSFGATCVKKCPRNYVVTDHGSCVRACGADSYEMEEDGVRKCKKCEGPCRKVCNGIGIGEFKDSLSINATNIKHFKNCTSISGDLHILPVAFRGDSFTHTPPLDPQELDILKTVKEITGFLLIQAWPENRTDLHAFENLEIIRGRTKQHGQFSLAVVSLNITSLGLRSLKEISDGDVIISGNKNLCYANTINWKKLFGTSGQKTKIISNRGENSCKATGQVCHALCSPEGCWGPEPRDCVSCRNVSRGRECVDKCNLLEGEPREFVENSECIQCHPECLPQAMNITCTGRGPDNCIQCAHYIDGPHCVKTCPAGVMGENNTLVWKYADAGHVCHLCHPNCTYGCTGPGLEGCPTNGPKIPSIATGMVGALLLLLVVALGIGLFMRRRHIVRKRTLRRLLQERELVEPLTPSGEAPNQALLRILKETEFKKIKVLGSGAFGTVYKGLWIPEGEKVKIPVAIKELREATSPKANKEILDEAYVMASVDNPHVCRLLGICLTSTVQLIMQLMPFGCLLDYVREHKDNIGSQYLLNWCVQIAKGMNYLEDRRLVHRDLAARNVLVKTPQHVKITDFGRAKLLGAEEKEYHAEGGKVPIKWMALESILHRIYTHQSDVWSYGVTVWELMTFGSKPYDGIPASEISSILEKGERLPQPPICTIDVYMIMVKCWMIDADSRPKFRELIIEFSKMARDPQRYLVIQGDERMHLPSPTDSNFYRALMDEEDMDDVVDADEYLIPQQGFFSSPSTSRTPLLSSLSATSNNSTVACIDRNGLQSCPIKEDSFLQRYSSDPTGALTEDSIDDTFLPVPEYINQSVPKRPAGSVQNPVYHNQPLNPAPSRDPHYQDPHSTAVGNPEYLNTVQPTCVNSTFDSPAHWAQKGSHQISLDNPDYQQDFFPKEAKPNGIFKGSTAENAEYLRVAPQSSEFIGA
# assay_text: HTRF pEGFR/total EGFR in H1975 cells
# test_conditions: ratio pEGFR/total EGFR, compound 3 hours
reported_metric: IC50

Query block: What value of measured IC50 is listed for C#Cc1cc(=O)n(C2CCCC2)c2nc(Nc3cccc(CN4CCC(CS(C)(=O)=O)CC4)c3)ncc12 ?
Result block: > 3000 nM

Query block: What value of measured IC50 is listed for C#Cc1cc(=O)n(C)c2nc(Nc3ccc(N4CCN(C)CC4)c(C(=O)NCC4CCCC4)c3)ncc12 ?
Result block: 500 to 1000 nM

Query block: What value of measured IC50 is listed for C#Cc1c(C)c(=O)n(Cc2ccn(C)n2)c2nc(Nc3ccc(N4CCN(C)CC4)cc3)ncc12 ?
Result block: 500 to 1000 nM

Query block: What value of measured IC50 is listed for C=Cc1cc(=O)n(-c2ccc(OC)cc2OC)c2nc(Nc3ccc(N(C)CCN(C)C)cc3)ncc12 ?
Result block: > 3000 nM

Query block: What value of measured IC50 is listed for C#Cc1cc(=O)n([C@H]2CC[C@H](NC(C)=O)CC2)c2nc(Nc3ccc(N4CCN(C)CC4)cc3)ncc12 ?
Result block: < 500 nM

Query block: What value of measured IC50 is listed for C#Cc1cc(=O)n([C@H]2CC[C@@H](NC(=O)CN(C)C)CC2)c2nc(Nc3ccc(N4CCN(C)CC4)cc3)ncc12 ?
Result block: < 500 nM

Query block: What value of measured IC50 is listed for C#Cc1c(-c2cc(F)ccc2Cl)c(=O)n(C)c2nc(Nc3ccc(N(C)CCN(C)C)cc3)ncc12 ?
Result block: 500 to 1000 nM

* * *

# measurement_target: CtermHisTag-mEGFR Wild type (Homo sapiens)
# Sequence (P00533 whole entry): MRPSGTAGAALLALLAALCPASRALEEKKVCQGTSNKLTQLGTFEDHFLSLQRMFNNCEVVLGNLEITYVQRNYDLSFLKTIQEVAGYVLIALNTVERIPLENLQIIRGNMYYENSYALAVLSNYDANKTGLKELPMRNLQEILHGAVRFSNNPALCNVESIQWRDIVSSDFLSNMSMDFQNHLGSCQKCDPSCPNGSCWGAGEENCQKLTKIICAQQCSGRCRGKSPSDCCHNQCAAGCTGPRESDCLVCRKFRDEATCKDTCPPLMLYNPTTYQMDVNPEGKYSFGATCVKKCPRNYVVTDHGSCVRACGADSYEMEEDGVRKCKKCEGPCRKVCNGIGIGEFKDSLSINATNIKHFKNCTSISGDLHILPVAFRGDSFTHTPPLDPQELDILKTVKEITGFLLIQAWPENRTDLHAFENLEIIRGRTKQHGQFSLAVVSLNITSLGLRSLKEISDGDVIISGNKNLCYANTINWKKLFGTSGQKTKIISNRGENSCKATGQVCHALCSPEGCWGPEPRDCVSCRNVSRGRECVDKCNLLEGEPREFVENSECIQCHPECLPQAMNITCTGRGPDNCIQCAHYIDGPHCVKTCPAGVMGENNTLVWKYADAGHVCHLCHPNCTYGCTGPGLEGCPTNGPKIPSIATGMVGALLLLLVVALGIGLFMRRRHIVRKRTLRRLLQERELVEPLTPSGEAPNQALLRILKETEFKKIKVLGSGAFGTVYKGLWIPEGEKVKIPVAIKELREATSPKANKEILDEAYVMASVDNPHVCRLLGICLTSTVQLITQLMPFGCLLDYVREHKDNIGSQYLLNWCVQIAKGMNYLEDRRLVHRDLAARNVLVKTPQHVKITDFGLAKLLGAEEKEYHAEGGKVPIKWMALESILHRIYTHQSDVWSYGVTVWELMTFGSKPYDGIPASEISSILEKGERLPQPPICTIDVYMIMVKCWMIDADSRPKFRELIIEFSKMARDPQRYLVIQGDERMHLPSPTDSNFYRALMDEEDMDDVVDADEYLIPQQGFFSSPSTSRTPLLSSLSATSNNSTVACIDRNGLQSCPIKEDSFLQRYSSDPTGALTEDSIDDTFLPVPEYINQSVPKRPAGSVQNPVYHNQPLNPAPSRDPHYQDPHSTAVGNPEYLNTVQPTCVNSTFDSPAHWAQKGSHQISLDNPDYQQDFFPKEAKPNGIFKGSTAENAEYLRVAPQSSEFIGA
# assay_text: biochemical
reported_metric: IC50

Query block: What value of measured IC50 is listed for C#Cc1cc(=O)n(CC2CCCO2)c2nc(Nc3ccc(N4CCN(C)CC4)cc3)ncc12 (stereo not shown) ?
Result block: < 1000 nM

Query block: What value of measured IC50 is listed for C#Cc1c(C)c(=O)n2c3nc(ncc13)Nc1ccc(N3CCN(C)CC3)c(c1)OCCCC2 ?
Result block: < 1000 nM

Query block: What value of measured IC50 is listed for C#Cc1cc(=O)n(-c2ccccc2)c2nc(Nc3ccc(N4CCN(CC)CC4)cc3)ncc12 ?
Result block: < 1000 nM

Query block: What value of measured IC50 is listed for C#Cc1cc(=O)n(-c2ccccc2)c2nc(Nc3ccc(N4CCN(C)CC4)c(CO)c3)ncc12 ?
Result block: < 1000 nM

Query block: What value of measured IC50 is listed for C#Cc1cc(=O)n(-c2ccc(OC)cc2)c2nc(Nc3ccccc3OC)ncc12 ?
Result block: > 10000 nM

Query block: What value of measured IC50 is listed for C#Cc1cc(=O)[nH]c2nc(Nc3ccc(N4CCN(C)CC4)c(CNC(=O)C=C)c3)ncc12 ?
Result block: < 1000 nM

Query block: What value of measured IC50 is listed for C#Cc1c(C)c(=O)n([C@H]2CC[C@H](NC(C)=O)CC2)c2nc(Nc3ccc(N4CCN(C)CC4)cc3)ncc12 ?
Result block: 1000 to 10000 nM

Query block: What value of measured IC50 is listed for C#Cc1cc(=O)n(-c2cccc(NS(=O)(=O)C3CC3)c2)c2nc(Nc3ccccc3OC)ncc12 ?
Result block: > 10000 nM

Query block: What value of measured IC50 is listed for C=Cc1c(C#N)c(=O)n(-c2ccc(OC)cc2OC)c2nc(Nc3ccccc3OC)ncc12 ?
Result block: 1000 to 10000 nM

Query block: What value of measured IC50 is listed for C#Cc1cc(=O)n([C@H]2CC[C@@H](NC(=O)CC)CC2)c2nc(Nc3ccc(N4CCN(C)CC4)cc3)ncc12 ?
Result block: < 1000 nM

Query block: What value of measured IC50 is listed for C#Cc1cc(=O)n(-c2cccc(NC(=O)COC(C)=O)c2)c2nc(Nc3ccccc3OC)ncc12 ?
Result block: 1000 to 10000 nM

Query block: What value of measured IC50 is listed for C#Cc1cc(=O)n(-c2ccccc2)c2nc(Nc3ccc(N4CCNC5(CC5)C4)cc3)ncc12 ?
Result block: < 1000 nM

Query block: What value of measured IC50 is listed for C#Cc1cc(=O)n2c3nc(ncc13)Nc1ccc(N3CCN(C)CC3)c(c1)OCCC[C@H]2C ?
Result block: < 1000 nM

Query block: What value of measured IC50 is listed for C#Cc1cc(=O)n(C2CCCC2)c2nc(Nc3cccc(N(C)[C@H]4CC[C@H](CS(C)(=O)=O)CC4)c3)ncc12 ?
Result block: < 1000 nM

Query block: What value of measured IC50 is listed for C#Cc1cc(=O)n(C)c2nc(Nc3cccc(N(C)CCN(C)C)c3)ncc12 ?
Result block: < 1000 nM

Query block: What value of measured IC50 is listed for C#Cc1c(C)c(=O)n(Cc2cccnc2)c2nc(Nc3ccc(N4CCN(C)CC4)cc3)ncc12 [Example 115] ?
Result block: < 1000 nM

* * *

Would you mind telling me the reported IC50 of each entry?
# measurement_target: Phospho-EGFR (Tyr1068) in H1975 C797S cells (CRISPR-edited EGFR C797S) (Homo sapiens, UniProt P00533, C797S/L858R/T790M)
# Sequence (P00533 25-1210 T790M/C797S/L858R): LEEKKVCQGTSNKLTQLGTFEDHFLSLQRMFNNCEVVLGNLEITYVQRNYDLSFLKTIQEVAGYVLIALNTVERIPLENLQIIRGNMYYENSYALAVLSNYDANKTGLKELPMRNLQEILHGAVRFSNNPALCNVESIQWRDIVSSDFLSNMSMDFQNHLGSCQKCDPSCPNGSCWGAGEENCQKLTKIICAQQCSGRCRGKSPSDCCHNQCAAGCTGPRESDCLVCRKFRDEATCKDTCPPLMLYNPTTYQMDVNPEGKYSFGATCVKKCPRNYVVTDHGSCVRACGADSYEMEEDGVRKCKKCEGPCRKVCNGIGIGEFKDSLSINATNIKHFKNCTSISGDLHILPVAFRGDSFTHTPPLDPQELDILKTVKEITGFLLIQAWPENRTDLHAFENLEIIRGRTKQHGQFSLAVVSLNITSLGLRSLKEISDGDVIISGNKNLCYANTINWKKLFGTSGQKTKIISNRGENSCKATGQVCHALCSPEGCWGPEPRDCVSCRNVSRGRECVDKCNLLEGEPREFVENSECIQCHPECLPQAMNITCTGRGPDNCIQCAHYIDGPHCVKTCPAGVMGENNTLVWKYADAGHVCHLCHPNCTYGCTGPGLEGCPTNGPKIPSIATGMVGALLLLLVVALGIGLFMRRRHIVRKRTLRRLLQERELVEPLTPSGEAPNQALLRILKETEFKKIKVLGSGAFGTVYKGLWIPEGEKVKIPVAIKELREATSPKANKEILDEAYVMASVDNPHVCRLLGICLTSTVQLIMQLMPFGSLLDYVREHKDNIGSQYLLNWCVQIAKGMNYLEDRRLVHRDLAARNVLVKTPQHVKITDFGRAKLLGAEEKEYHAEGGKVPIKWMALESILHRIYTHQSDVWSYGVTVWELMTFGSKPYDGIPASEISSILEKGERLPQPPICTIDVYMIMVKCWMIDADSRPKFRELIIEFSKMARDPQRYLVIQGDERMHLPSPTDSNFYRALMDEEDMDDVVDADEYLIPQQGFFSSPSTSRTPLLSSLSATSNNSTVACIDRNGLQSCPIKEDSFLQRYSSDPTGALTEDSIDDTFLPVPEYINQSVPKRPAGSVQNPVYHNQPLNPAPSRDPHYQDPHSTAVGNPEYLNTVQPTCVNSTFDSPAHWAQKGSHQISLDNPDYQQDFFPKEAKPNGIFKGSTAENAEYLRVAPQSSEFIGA
# assay_text: HTRF pEGFR/total EGFR in H1975 C797S cells
# test_conditions: ratio pEGFR/total EGFR, compound 3 hours
Structures can show the parent of a compound that is named as a salt.

Query block: What value of measured IC50 is listed for C#Cc1cc(=O)n([C@@H]2CCCN(C(=O)CC)C2)c2nc(Nc3ccc(N(C)CCN(C)C)cc3)ncc12 [Example 77, trifluoroacetic acid salt] ?
Result block: > 3000 nM

Query block: What value of measured IC50 is listed for C#Cc1cc(=O)n2c3nc(ncc13)Nc1ccc(N3CCN(C)CC3)c(c1)OCCC[C@H]2C [Example 239] ?
Result block: < 500 nM

Query block: What value of measured IC50 is listed for C#Cc1cc(=O)n(-c2ccccc2)c2nc(Nc3cnn(C4CCN(C)CC4)c3)ncc12 [Example 19] ?
Result block: 500 to 1000 nM

Query block: What value of measured IC50 is listed for C#Cc1cc(=O)n(C)c2nc(Nc3ccc(N4CCN(C)CC4)c(OCCC4CCCC4)c3)ncc12 [Example 209] ?
Result block: < 500 nM

Query block: What value of measured IC50 is listed for C#Cc1cc(=O)n(-c2ccccc2)c2nc(Nc3ccc(N4CCC(N5CCN(C)CC5)CC4)cc3)ncc12 [Example 23] ?
Result block: < 500 nM

Query block: What value of measured IC50 is listed for C#Cc1c(C)c(=O)n(Cc2ccn(C)n2)c2nc(Nc3ccc(N4CCN(C)CC4)cc3)ncc12 [Example 110] ?
Result block: 1000 to 3000 nM

Query block: What value of measured IC50 is listed for C#Cc1cc(=O)n(-c2ccccc2)c2nc(Nc3ccc(N4CCN(C)CC4)c(CO)c3)ncc12 [Example 31] ?
Result block: 500 to 1000 nM

Query block: What value of measured IC50 is listed for C#Cc1cc(=O)n(C2CCCC2)c2nc(Nc3cccc(N(C)[C@H]4C[C@@H](CS(C)(=O)=O)C4)c3)ncc12 [Example 203] ?
Result block: > 3000 nM

Query block: What value of measured IC50 is listed for C#Cc1cc(=O)n(-c2ccccc2)c2nc(Nc3ccc(N4CCC(N5CC(N(C)C)C5)CC4)cc3)ncc12 [Example 29] ?
Result block: < 500 nM

Query block: What value of measured IC50 is listed for C#Cc1cc(=O)n([C@H]2CC[C@@H](NC(=O)CC)CC2)c2nc(Nc3ccc(N4CCN(C)CC4)cc3)ncc12 [Example 81] ?
Result block: < 500 nM

Query block: What value of measured IC50 is listed for C#Cc1cc(=O)n(C)c2nc(Nc3ccc(N4CCN(C)CC4)c(OCC4CCCC4)c3)ncc12 [Example 211] ?
Result block: < 500 nM

Query block: What value of measured IC50 is listed for C#Cc1c(C)c(=O)n(Cc2cnco2)c2nc(Nc3ccc(N4CCN(C)CC4)cc3)ncc12 [Example 176] ?
Result block: 1000 to 3000 nM

Query block: What value of measured IC50 is listed for C#Cc1cc(=O)n(-c2ccc(N)cc2)c2nc(Nc3ccccc3OC)ncc12 [Example 61] ?
Result block: > 3000 nM

Query block: What value of measured IC50 is listed for C#Cc1cc(=O)n(-c2ccccc2)c2nc(NC3CCN(S(C)(=O)=O)CC3)ncc12 [Example 10] ?
Result block: > 3000 nM

Query block: What value of measured IC50 is listed for C#Cc1c(C)c(=O)n2c3nc(ncc13)Nc1ccc(N3CCN(C)CC3)c(c1)OCCCCC2 [Example 229] ?
Result block: < 500 nM

Query block: What value of measured IC50 is listed for C#Cc1cc(=O)n(-c2ccccc2)c2nc(Nc3ccc(N(C)CCN(C)C)c(C)c3)ncc12 [Example 32] ?
Result block: < 500 nM

Query block: What value of measured IC50 is listed for C#Cc1cc(=O)n(CC2CCCC2)c2nc(Nc3ccc(N4CCN(C)CC4)cc3)ncc12 [Example 67] ?
Result block: < 500 nM

Query block: What value of measured IC50 is listed for C#Cc1cc(=O)n(-c2ccccc2)c2nc(Nc3cnn(C)c3)ncc12 [Example 25] ?
Result block: 1000 to 3000 nM

Query block: What value of measured IC50 is listed for C#Cc1cc(=O)n(C2CCCC2)c2nc(Nc3ccc(N4CCN(C)CC4)cc3)ncc12 [Example 78] ?
Result block: < 500 nM

Query block: What value of measured IC50 is listed for C#Cc1cc(=O)n(C)c2nc(Nc3cccc(N(C)CCN(C)C)c3)ncc12 [Example 52] ?
Result block: < 500 nM

Query block: What value of measured IC50 is listed for C#Cc1cc(=O)n(-c2ccccc2)c2nc(Nc3ccc(N(C)C(=O)CN(C)C)cc3OC)ncc12 [Example 7] ?
Result block: 1000 to 3000 nM

Query block: What value of measured IC50 is listed for C#Cc1c(C)c(=O)n(Cc2cnn(C)c2)c2nc(Nc3ccc(N4CCN(C)CC4)cc3)ncc12 [Example 180] ?
Result block: 1000 to 3000 nM

Query block: What value of measured IC50 is listed for C#Cc1cc(=O)n(C2CCCC2)c2nc(Nc3cccc(CN4CC(CS(C)(=O)=O)C4)c3)ncc12 [Example 181] ?
Result block: > 3000 nM

Query block: What value of measured IC50 is listed for C#Cc1c(-c2c(Cl)cccc2Cl)c(=O)n(C)c2nc(Nc3ccc(N(C)CCN(C)C)cc3)ncc12 [Example 134] ?
Result block: > 3000 nM

Query block: What value of measured IC50 is listed for C#Cc1cc(=O)n(-c2ccc(NC(=O)C=C)cc2)c2nc(Nc3ccccc3OC)ncc12 [Example 88] ?
Result block: > 3000 nM

Query block: What value of measured IC50 is listed for C#Cc1c(C)c(=O)n(Cc2cccnc2)c2nc(Nc3ccc(N4CCN(C)CC4)cc3)ncc12 [Example 115] ?
Result block: 1000 to 3000 nM

Query block: What value of measured IC50 is listed for C#Cc1c(-c2ccccc2Cl)c(=O)n(C)c2nc(Nc3ccc(OCCN(C)C)cc3)ncc12 [Example 129] ?
Result block: > 3000 nM

Query block: What value of measured IC50 is listed for C#Cc1cc(=O)n(C)c2nc(Nc3ccc(N4CCN(C)CC4)c(NC(=O)CC4CCCC4)c3)ncc12 [Example 217] ?
Result block: < 500 nM

Query block: What value of measured IC50 is listed for C#Cc1cc(=O)n(-c2ccccc2)c2nc(Nc3ccc(N4CCNC5(CC5)C4)cc3)ncc12 [Example 38] ?
Result block: < 500 nM

Query block: What value of measured IC50 is listed for C#Cc1cc(=O)n(-c2ccccc2)c2nc(Nc3ccc(N4CCCNCC4)cc3)ncc12 [Example 20] ?
Result block: < 500 nM

Query block: What value of measured IC50 is listed for C#Cc1cc(=O)n(-c2ccccc2)c2nc(Nc3ccc(N4CCC(N(C)C)CC4)cc3)ncc12 [Example 33] ?
Result block: < 500 nM
